Property Measured: melting point

Would you please look over these solved cases?
Molecule | Value Reported
O=C(c1ccc2c(c1)[nH]c(=O)c1cnn(C3CCOCC3)c12)N1CCc2cc(Cl)ccc21 | 341 to 343 °C
Cc1cc2[nH]c(=O)c3cnn(C4CCOCC4)c3c2cc1C(=O)N1CCN(C)C(c2cccnc2)C1 (stereo not shown) | 255 to 257 °C
Cc1cc2[nH]c(=O)c3cnn(C4CCOCC4)c3c2cc1C(=O)NCC1(N2CCOCC2)CCCCC1.Cl | 281 to 283 °C

Q: Which melting point value is on record for COCCCCN1CCN(C(=O)c2cc3c(cc2C)[nH]c(=O)c2cnn(CC4CCC4)c23)CC1 ?
Result: 178 to 180 °C

Q: Which melting point value is on record for Cc1cc2[nH]c(=O)c3cnn(C4CCOCC4)c3c2cc1C(=O)N1CCN(c2ccccn2)CC1 ?
Result: 272 to 275 °C

Q: Which melting point value is on record for Cc1cc2[nH]c(=O)c3cnn(C4CCOCC4)c3c2cc1C(=O)N1CCOC(c2cccnc2)C1 (stereo not shown) ?
Result: 266 to 268 °C

Q: Which melting point value is on record for Cc1cc2[nH]c(=O)c3cnn(C4CCOCC4)c3c2cc1C(=O)N1CCC2(CCN(Cc3ccccc3)CC2)CC1 ?
Result: 221 to 224 °C
